We begin with a simple list: items and their reported IC50.
assay overview: Antiproliferative activity against HEK293 cells assessed as inhibition of cell growth by MTT assay
Type: toxicity, cell-based
assay conditions: human

Completed entries (count: 2):
| chemical structure | IC50 |
| --- | --- |
| COc1ccc(/C=C(/C(=O)Nc2ccccc2)c2cc(OC)c(OC)c(OC)c2)cc1O | > 100 µM |
| COc1ccc(/C=C(/C(=O)Nc2ccc(C(C)C)cc2)c2cc(OC)c(OC)c(OC)c2)cc1OC(C)=O | > 100 µM |

The compound listed as COc1ccc(/C=C(/C(=O)Nc2cc(OC)c(OC)c(OC)c2)c2cc(OC)c(OC)c(OC)c2)cc1OC(C)=O has a reported IC50 of > 100 µM

The compound listed as COc1ccc(/C=C(/C(=O)Nc2ccc(Cl)cc2)c2cc(OC)c(OC)c(OC)c2)cc1OC(C)=O has a reported IC50 of > 100 µM

The compound listed as COc1ccc(/C=C\c2cc(OC)c(OC)c(OC)c2)cc1O has a reported IC50 of 48.1 µM
